Rel. activity values, listed per item
- Tested on: deac1 protein
- protocol.text: Substrate specificity and stereoselectivity of the purified deac1 enzyme (free amino acid formed, amino acid analyzer)
- Type: biochemical, Stenotrophomonas sp.
- test.context: 5 μg purified enzyme, 25 mM substrate, pH 7.5, 37° C., 1 h; specific activity with hippuric acid set equal to 100%
The reply should contain only the number, in %.

Recall and state the measured Rel. activity for CSCC[C@H](NC(C)=O)C(=O)O .
0

Recall and state the measured Rel. activity for CC(=O)N1CCC[C@H]1C(=O)O .
0

Recall and state the measured Rel. activity for CC(=O)N[C@@H](Cc1c[nH]c2ccccc12)C(=O)O .
0.4

Recall and state the measured Rel. activity for CC(=O)N[C@@H](CO)C(=O)O .
4

Recall and state the measured Rel. activity for CC(=O)N[C@@H](Cc1ccccc1)C(=O)O .
24
